Listing of entries alongside the reported Emax.
# study.target: glutathione-S-transferase (GST) tagged LXRalpha LBD (ligand binding domain) (Homo sapiens)
# Construct: purchased Invitrogen pv4655
# Sequence (Q13133 209-447 limits assumed): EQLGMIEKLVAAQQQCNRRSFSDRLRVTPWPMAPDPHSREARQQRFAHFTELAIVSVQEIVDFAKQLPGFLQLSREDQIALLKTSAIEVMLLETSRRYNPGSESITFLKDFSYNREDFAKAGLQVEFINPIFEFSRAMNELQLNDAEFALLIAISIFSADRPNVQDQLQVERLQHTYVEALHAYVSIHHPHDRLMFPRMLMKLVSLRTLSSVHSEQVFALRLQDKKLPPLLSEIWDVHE
# protocol: LanthaScreen TR-FRET Liver X Receptor Coactivator Assay, co-activator recruitment to LXRalpha LBD
# Type: biochemical
# applied.conditions: efficacy at max dose, in relation to reference dual agonist T0901317; read-out: LXR alpha Activity @ max dose (%)
Entry rule: numbers only, all in %.

Reference set (2 entries):
>>> df
                                   compound  test_value
0  CN(C)C(=O)c1ccc(N2CCC(CC3CCN(C(=O)C4(c5ccccc5)CCC4)CC3)CC2)cc1Cl [Example 2-18]           6
1  CCOc1cccc([C@@](O)(C(=O)N2CC(CC3CCN(c4ccc(C(=O)NC)c(Cl)c4)CC3)C2)C(F)(F)F)c1 [Example 7-39]           0

Find the recorded Emax belonging to COc1cccc([C@@](O)(C(=O)N2CCC(C)(CC3CCN(c4ccc(C(=O)N(C)C)c(Cl)c4)CC3)CC2)C(F)(F)F)c1 [Example 2-45] and report it. 0

Find the recorded Emax belonging to CNC(=O)c1ccc(N2CCC(OC3CCN(C(=O)C(O)(c4cccc(C)c4)C(F)(F)F)CC3)CC2)cc1Cl (stereo not shown) [Example 7-29] and report it. 25
